- assay_target: ErbB2 with Exon 20 YVMA insertion (HER2-YVMA) (Homo sapiens (Human), UniProt P04626, INS775YVMA)
- Sequence (P04626 other isoform, or with tags, fused parts or gaps ins YVMA behind 775): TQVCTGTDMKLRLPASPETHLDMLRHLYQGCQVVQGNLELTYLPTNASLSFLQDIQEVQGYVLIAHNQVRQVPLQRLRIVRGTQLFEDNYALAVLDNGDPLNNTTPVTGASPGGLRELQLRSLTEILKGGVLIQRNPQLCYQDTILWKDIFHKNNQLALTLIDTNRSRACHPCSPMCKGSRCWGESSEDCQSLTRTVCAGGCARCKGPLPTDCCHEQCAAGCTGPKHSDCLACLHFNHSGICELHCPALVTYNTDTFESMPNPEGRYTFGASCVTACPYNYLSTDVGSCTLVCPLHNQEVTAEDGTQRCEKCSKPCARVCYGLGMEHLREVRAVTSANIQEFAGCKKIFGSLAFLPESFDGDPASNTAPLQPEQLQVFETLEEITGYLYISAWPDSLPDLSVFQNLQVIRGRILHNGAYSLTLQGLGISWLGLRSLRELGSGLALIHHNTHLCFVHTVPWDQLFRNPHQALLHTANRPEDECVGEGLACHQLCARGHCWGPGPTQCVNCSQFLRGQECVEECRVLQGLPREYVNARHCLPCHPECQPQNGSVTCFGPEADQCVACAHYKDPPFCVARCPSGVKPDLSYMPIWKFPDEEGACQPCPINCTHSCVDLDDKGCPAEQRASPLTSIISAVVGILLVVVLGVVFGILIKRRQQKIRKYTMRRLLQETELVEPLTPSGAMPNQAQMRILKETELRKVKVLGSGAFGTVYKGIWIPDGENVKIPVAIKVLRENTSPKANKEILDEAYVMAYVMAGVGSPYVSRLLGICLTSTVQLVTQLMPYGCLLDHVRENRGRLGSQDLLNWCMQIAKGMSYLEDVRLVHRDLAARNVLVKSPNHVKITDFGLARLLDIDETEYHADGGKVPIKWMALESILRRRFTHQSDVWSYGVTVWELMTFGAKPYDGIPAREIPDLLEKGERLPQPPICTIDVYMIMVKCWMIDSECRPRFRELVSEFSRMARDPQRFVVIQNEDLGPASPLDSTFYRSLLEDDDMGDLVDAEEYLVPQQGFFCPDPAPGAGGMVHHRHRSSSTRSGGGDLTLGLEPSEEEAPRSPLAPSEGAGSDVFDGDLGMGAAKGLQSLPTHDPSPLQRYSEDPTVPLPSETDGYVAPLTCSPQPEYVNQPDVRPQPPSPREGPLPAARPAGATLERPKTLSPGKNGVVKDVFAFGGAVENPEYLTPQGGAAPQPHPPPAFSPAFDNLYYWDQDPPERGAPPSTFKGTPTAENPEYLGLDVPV
- measurement_notes: Cellular Phosphorylation Assay, Assay 4 (constitutive ErbB2 phosphorylation, NIH 3T3 cells)
- Assay type: cell-based
- condition_description: cellular ErbB2 YVMA phosphorylation
result_type: IC50
Provide a numeric answer, followed by its unit.

So what's the measured IC50 for this one? C=CC(=O)N1CCCC(c2ccc3ncnc(Nc4cc(Cl)c(Oc5ccn6ncnc6c5)cc4F)c3n2)CC1 (stereo not shown)
45.6 nM

So what's the measured IC50 for this one? C=CC(=O)N1[C@@H]2CC[C@H]1[C@H](c1ccc3ncnc(Nc4ccc(Oc5ccc6c(c5)ncn6C)c(C)c4F)c3n1)C2
10.7 nM

So what's the measured IC50 for this one? C=CC(=O)N1CC(Cc2ccc3ncnc(Nc4ccc(Oc5ccn6ncnc6c5)c(C)c4F)c3n2)C1
29.9 nM

So what's the measured IC50 for this one? C=CC(=O)N1CC2CC(C1)N2c1ccc2ncnc(Nc3cc(C)c(Oc4ccc5c(c4)ncn5C)cc3F)c2n1
21.8 nM

So what's the measured IC50 for this one? C=CC(=O)N1C[C@H]2C[C@@H]1CN(c1ccc3ncnc(Nc4ccc(Oc5ccn6ncnc6c5)c(Cl)c4F)c3n1)C2
11.6 nM

So what's the measured IC50 for this one? C=CC(=O)N1C[C@@H]2CC[C@H]1CN2c1ccc2ncnc(Nc3ccc(Oc4ccn5ncnc5c4)c(C)c3F)c2n1
3.2 nM

So what's the measured IC50 for this one? C=CC(=O)N1CCN(c2ccc3ncnc(Nc4ccc(Oc5ccn6ncnc6c5)c(C)c4F)c3n2)C[C@@H]1COC
5.5 nM

// data source = patent US12447153B2
